target: T1, full-length p53 (UniProt P04637 1-393); experiment: SPR; p53 binding domain of MDM2 immobilised on a CM5 chip by amine coupling; full-length p53 at 0.125 to 2 μM flowed over; BIAcore 3000; details: both partners purified
T1 construct: A fluorescein-labelled form was used in the ubiquitination assay only
T1 sequence (P04637 whole entry, the tested form may be a part): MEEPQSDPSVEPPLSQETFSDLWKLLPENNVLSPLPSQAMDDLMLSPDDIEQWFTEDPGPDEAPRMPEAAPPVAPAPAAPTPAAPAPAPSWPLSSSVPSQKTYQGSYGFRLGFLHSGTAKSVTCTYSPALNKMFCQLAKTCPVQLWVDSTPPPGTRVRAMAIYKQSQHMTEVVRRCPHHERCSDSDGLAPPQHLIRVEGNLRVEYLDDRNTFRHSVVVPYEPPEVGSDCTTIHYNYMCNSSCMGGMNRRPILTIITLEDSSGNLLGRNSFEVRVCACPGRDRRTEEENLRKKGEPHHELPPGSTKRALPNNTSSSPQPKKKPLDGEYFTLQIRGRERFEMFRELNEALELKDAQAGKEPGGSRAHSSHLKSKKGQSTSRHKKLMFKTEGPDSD
pKd: −log10 of the molar value.
MEASURED_ATTRIBUTE: pKd

>>> quantitative_readout("MDM2 p53 binding domain (domain or fragment) TLVRPKPLLLKLLKSVGAQKDTYTMKEVLFYLGQYIMTKRLYDEKQQHIVYCSNDLLGDLFGVPSFSVKEHRKIYTMIYRNLVV")
6.22
